- system.name: Tb-labeled inactive PDGFRβ (Homo sapiens (Human))
- test.description: PDGFRβ LanthaScreen Assay
- run.conditions: read-out: PDGFR Lantha IC50
property.name: IC50
Put your answer as a value accompanied by its unit after it.

Give Tb-labeled inactive PDGFRβ (Homo sapiens (Human)) IC50 for "Cc1ncc(NC(=O)CN2CCn3ccnc3C2)cc1NC(=O)c1cnn2cc(-c3cnn(C)c3)sc12"
47 nM

Give Tb-labeled inactive PDGFRβ (Homo sapiens (Human)) IC50 for "Cc1ncc(NC(=O)CN2CCC[C@@H]2C)cc1NC(=O)c1cnn2cc(-c3ccnc(N4CCOCC4)c3)sc12"
4.7 nM

Give Tb-labeled inactive PDGFRβ (Homo sapiens (Human)) IC50 for Cc1ncc(NC(=O)CN2CCCC(O)C2)cc1NC(=O)c1cnn2cc(-c3cnn(C)c3)sc12 (stereo not drawn)
5.8 nM

Give Tb-labeled inactive PDGFRβ (Homo sapiens (Human)) IC50 for "Cc1ncc(NC(=O)[C@@H]2C[C@@H](C)CN2C)cc1NC(=O)c1cnn2cc(-c3cnn(C)c3)sc12"
5.6 nM

Give Tb-labeled inactive PDGFRβ (Homo sapiens (Human)) IC50 for "Cc1ncc(C(=O)NCCN2CCCC2)cc1NC(=O)c1cnn2cc(-c3c(C)nn(C)c3C)sc12"
5.7 nM

Give Tb-labeled inactive PDGFRβ (Homo sapiens (Human)) IC50 for "Cc1ncc(C(=O)NCCN2CCCC2(C)C)cc1NC(=O)c1cnn2cc(-c3cnn(C)c3)sc12"
4.7 nM

Give Tb-labeled inactive PDGFRβ (Homo sapiens (Human)) IC50 for "COCCn1cc(-c2cn3ncc(C(=O)Nc4cc(NC(=O)CN5CCC6(CC6)C5)cnc4C)c3s2)cn1"
3.7 nM

Give Tb-labeled inactive PDGFRβ (Homo sapiens (Human)) IC50 for "COCCn1cc(-c2cn3ncc(C(=O)Nc4cc(C(=O)NCCN5CCC(F)(F)C5)cnc4C)c3s2)cn1"
4.2 nM

Give Tb-labeled inactive PDGFRβ (Homo sapiens (Human)) IC50 for "Cc1ncc(C(=O)NCCN2CCCC2(C)C)cc1NC(=O)c1cnn2cc(-c3cnn(Cc4cc(OCc5ccccc5)no4)c3)sc12"
4.5 nM

Give Tb-labeled inactive PDGFRβ (Homo sapiens (Human)) IC50 for Cc1ncc(NC(=O)CN2C[C@@H](C)O[C@H](C)C2)cc1NC(=O)c1cnn2cc(-c3cnn(C)c3C)sc12 (relative stereo)
4 nM

Give Tb-labeled inactive PDGFRβ (Homo sapiens (Human)) IC50 for "Cc1ncc(NC(=O)CN2CCC(F)(F)CC2)cc1NC(=O)c1cnn2cc(-c3cnn(C)c3)sc12"
2.7 nM

Give Tb-labeled inactive PDGFRβ (Homo sapiens (Human)) IC50 for "Cc1ncc(C(=O)NCCN2CCCC2(C)C)cc1NC(=O)c1cnn2cc(-c3ccc(=O)[nH]n3)sc12"
18.6 nM

Give Tb-labeled inactive PDGFRβ (Homo sapiens (Human)) IC50 for "Cc1ncc(NC(=O)CN2C[C@@H](CO)OC(C)(C)C2)cc1NC(=O)c1cnn2cc(-c3cnn(C)c3)sc12"
6.2 nM

Give Tb-labeled inactive PDGFRβ (Homo sapiens (Human)) IC50 for "Cc1cc(C(=O)NCCN2CCC(C)(C)C2)sc1NC(=O)c1cnn2cc(-c3cnn(C)c3)sc12"
319 nM

Give Tb-labeled inactive PDGFRβ (Homo sapiens (Human)) IC50 for "Cc1ncc(NC(=O)CN2CCCC(F)(F)C2)cc1NC(=O)c1cnn2cc(-c3cnn(C)c3)sc12"
2.1 nM

----------
property.name: log10 of IC50 (log10 of the value in pM)
A difference of one corresponds to tenfold IC50; all values are log10 with IC50 in pM.

Give His6-TEV-PDGFRβ (557-1016) (Homo sapiens (Human)) log10 of IC50 for "Cc1ncc(NC(=O)CN2CC(C)(C)C2)cc1NC(=O)c1cnn2cc(-c3cnn(C4CCS(=O)(=O)CC4)c3)sc12"
2.48

Give His6-TEV-PDGFRβ (557-1016) (Homo sapiens (Human)) log10 of IC50 for "Cc1ncc(C(=O)NCCN2CCCC23CCC3)cc1NC(=O)c1cnn2cc(-c3cnn(C)c3)sc12"
2.78

Give His6-TEV-PDGFRβ (557-1016) (Homo sapiens (Human)) log10 of IC50 for "Cc1ncc(NC(=O)CN2CCOCC2(C)C)cc1NC(=O)c1cnn2cc(-c3cnn(C)c3)sc12"
2.90

Give His6-TEV-PDGFRβ (557-1016) (Homo sapiens (Human)) log10 of IC50 for "Cc1ncc(C(=O)NCCN2CCC3(CC3)C2)cc1NC(=O)c1cnn2cc(-c3cn(C)cn3)sc12"
2.60

Give His6-TEV-PDGFRβ (557-1016) (Homo sapiens (Human)) log10 of IC50 for Cc1cc(C(=O)NCCN2CCCC(O)C2)sc1NC(=O)c1cnn2cc(-c3cnn(C)c3)sc12 (stereo not shown)
4.69

Give His6-TEV-PDGFRβ (557-1016) (Homo sapiens (Human)) log10 of IC50 for "COc1ncccc1-c1cn2ncc(C(=O)Nc3cc(NC(=O)CN4CC(C)(C)C4)cnc3C)c2s1"
2.30

Give His6-TEV-PDGFRβ (557-1016) (Homo sapiens (Human)) log10 of IC50 for "COCCn1cc(-c2cn3ncc(C(=O)Nc4cc(NC(=O)CN5C[C@H]6CC[C@@H]5C6)cnc4C)c3s2)cn1"
2.70

----------
Reported pIC50, His6-TEV-PDGFRβ (557-1016) (Homo sapiens (Human), UniProt P09619).
Friendly reminder that pIC50 comes from taking -log10 of the concentration in mol/L.

Which pIC50 value belongs to COCCn1cc(-c2cn3ncc(C(=O)Nc4cc(NC(=O)CN5CCCCC5)cnc4C)c3s2)cn1 [Example 338] ?
9.40

Which pIC50 value belongs to Cc1ncc(NC(=O)OC[C@@H]2CCCN2C)cc1NC(=O)c1cnn2cc(-c3cc[nH]c3)sc12 [Example 258] ?
9.40

Which pIC50 value belongs to Cc1ncc(NC(=O)CN2CCCC23CCC3)cc1NC(=O)c1cnn2cc(-c3cnn4c3COCC4)sc12 [Example 417] ?
9.40

Which pIC50 value belongs to Cc1ncc(NC(=O)CN2CC(C)(C)C2)cc1NC(=O)c1cnn2cc(-c3cnn(C(F)(F)F)c3)sc12 [Example 269] ?
8.74

Which pIC50 value belongs to Cc1ncc(C(=O)NCCN2CCCC2(C)C)cc1NC(=O)c1cnn2cc(-c3ccncc3)sc12 [Example 7] ?
9.30

Which pIC50 value belongs to COCCn1cc(-c2cn3ncc(C(=O)Nc4cc(NC(=O)C5CCN(C(C)C)C5)cnc4C)c3s2)cn1 (stereo not drawn) [Example 345] ?
8.89

Which pIC50 value belongs to Cc1ncc(C(=O)NCCN2CC(C)(C)C2)cc1NC(=O)c1cnn2cc(-c3ccncc3)sc12 [Example 155] ?
9.00

Which pIC50 value belongs to Cc1ncc(NC(=O)CN2CC(C)(C)C2)cc1NC(=O)c1cnn2cc(-c3ccoc3)sc12 [Example 283] ?
10.00

Which pIC50 value belongs to Cc1ncc(NC(=O)CNC2CCC2)cc1NC(=O)c1cnn2cc(-c3cnn4c3CCC4)sc12 [Example 471] ?
10.00

Which pIC50 value belongs to Cc1ncc(NC(=O)CN2CCS(=O)(=O)CC2)cc1NC(=O)c1cnn2cc(-c3cnn(C)c3)sc12 [Example 59] ?
8.68

Which pIC50 value belongs to COc1ncccc1-c1cn2ncc(C(=O)Nc3cc(NC(=O)CN4CC(F)C4)cnc3C)c2s1 [Example 402] ?
9.52

Which pIC50 value belongs to Cc1ncc(C(=O)NCCN2CCCC2(C)C)cc1NC(=O)c1cnn2cc(-c3cnn4c3CCC4)sc12 [Example 481] ?
9.52

Which pIC50 value belongs to Cc1ncc(C(=O)NCCN2CCC3(CC3)C2)cc1NC(=O)c1cnn2cc(-c3ccncc3)sc12 [Example 153] ?
9.40

Which pIC50 value belongs to Cc1ncc(NC(=O)CN2CC(C)(C)C2)cc1NC(=O)c1cnn2cc(-c3cnn(C)c3)sc12 [Example 22] ?
9.15

----------
Would you mind telling me the reported pIC50 of each entry?
- system.name: Tb-labeled inactive PDGFRβ (Homo sapiens (Human), UniProt P09619)
- Sequence (P09619 33-1106): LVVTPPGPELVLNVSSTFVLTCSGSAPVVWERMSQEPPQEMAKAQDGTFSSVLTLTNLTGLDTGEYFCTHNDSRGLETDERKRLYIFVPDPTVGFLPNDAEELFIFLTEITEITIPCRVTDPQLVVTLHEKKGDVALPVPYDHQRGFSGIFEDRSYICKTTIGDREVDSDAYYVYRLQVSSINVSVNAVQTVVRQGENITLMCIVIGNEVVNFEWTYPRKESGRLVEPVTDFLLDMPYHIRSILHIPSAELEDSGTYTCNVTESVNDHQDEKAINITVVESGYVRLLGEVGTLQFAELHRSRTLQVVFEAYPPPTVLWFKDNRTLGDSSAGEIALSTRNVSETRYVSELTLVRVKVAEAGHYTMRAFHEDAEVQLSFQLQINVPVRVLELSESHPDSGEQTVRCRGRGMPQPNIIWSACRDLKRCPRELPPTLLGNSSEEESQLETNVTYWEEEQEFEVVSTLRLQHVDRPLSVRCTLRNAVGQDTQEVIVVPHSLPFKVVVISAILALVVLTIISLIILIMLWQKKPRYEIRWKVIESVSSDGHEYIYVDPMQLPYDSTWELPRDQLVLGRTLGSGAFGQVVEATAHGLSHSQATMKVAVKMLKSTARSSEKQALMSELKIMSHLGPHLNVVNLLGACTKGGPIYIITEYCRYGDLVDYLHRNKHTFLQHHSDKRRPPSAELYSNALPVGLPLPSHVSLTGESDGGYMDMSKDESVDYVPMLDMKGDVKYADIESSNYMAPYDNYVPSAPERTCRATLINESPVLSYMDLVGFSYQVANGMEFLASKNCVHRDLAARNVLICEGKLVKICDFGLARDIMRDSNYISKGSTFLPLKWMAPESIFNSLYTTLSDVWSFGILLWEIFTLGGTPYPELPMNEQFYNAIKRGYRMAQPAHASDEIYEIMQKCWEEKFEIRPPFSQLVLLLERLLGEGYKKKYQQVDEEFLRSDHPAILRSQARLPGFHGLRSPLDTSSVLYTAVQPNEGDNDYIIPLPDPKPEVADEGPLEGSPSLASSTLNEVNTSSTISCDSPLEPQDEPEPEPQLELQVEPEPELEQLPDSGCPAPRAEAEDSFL
- test.description: PDGFRβ LanthaScreen Assay
- Type: binding
- run.conditions: read-out: PDGFR Lantha IC50
Friendly reminder that pIC50 comes from taking -log10 of the concentration in mol/L.

Which pIC50 value belongs to "COc1ncccc1-c1cn2ncc(C(=O)Nc3cc(NC(=O)OCCN4CCCC4(C)C)cnc3C)c2s1" ?
8.59

Which pIC50 value belongs to "Cc1ncc(NC(=O)CN2CC(C)(C)C2)cc1NC(=O)c1cnn2cc(-c3ccn(S(C)(=O)=O)c3)sc12" ?
8.60

Which pIC50 value belongs to "Cc1ncc(C(=O)NCCN2CCCC23CCC3)cc1NC(=O)c1cnn2cc(-c3cnn(C)c3)sc12" ?
8.40

Which pIC50 value belongs to "Cc1ncc(NC(=O)CN2CC(C)(C)C2)cc1NC(=O)c1cnn2cc(-c3cn(C)nc3C)sc12" ?
8.74

Which pIC50 value belongs to "Cc1ncc(NC(=O)CN2CCN(C)CC2)cc1NC(=O)c1cnn2cc(-c3cnn(C)c3)sc12" ?
6.12

Which pIC50 value belongs to "Cc1ncc(NC(=O)CN(C)C2CCOCC2)cc1NC(=O)c1cnn2cc(-c3cnn(C)c3)sc12" ?
8.33

Which pIC50 value belongs to "Cc1ncc(NC(=O)CN2CCCC23CCC3)cc1NC(=O)c1cnn2cc(-c3cnc4n3CCOC4)sc12" ?
8.54

Which pIC50 value belongs to "COc1ncccc1-c1cn2ncc(C(=O)Nc3cc(NC(=O)CN4C[C@@H](CO)OC(C)(C)C4)cnc3C)c2s1" ?
8.52

Which pIC50 value belongs to Cc1ncc(NC(=O)CN2C[C@H](C)O[C@@H](C)C2)cc1NC(=O)c1cnn2cc(-c3cnc(N)c(F)c3)sc12 (relative stereo) ?
8.11

Which pIC50 value belongs to "Cc1ncc(NC(=O)CN2CCc3cnccc3C2)cc1NC(=O)c1cnn2cc(-c3cnn(C)c3)sc12" ?
7.75

Which pIC50 value belongs to "Cc1ncc(NC(=O)CN2CC3CCC(C2)O3)cc1NC(=O)c1cnn2cc(-c3cc[nH]c3)sc12" ?
8.60

Which pIC50 value belongs to "Cc1ncc(NC(=O)CN2CC(C)(C)C2)cc1NC(=O)c1cnn2cc(-c3cnn(C(F)F)c3)sc12" ?
7.76

Which pIC50 value belongs to Cc1ncc(NC(=O)CN2CCC3(CCOC3)C2)cc1NC(=O)c1cnn2cc(-c3cnn(C)c3)sc12 (stereo not drawn) ?
8.38

Which pIC50 value belongs to "Cc1ncc(NC(=O)CN2CC(C)(C)C2)cc1NC(=O)c1cnn2cc(-c3cnn(C4CS(=O)(=O)C4)c3)sc12" ?
8.21

Which pIC50 value belongs to "Cc1ncc(C(=O)NCCN2CCCC2(C)C)cc1NC(=O)c1cnn2cc(-c3cnn(C4CC4)c3)sc12" ?
8.33
